# measured-target: Recombinant Human MMP-13 (Homo sapiens, UniProt P45452)
# Construct: purchased R&D systems 511-MM
# method-summary: MMP-13 inhibitory activity (MMP-13 specific fluorescent substrate with quencher)
# Assay type: biochemical
# settings: Experimental Example 3; read-out: IC50 MMP13
pIC50: −log10 of the molar value.
Listed below: pIC50 values for each entry.

Readout pIC50 for O=C(O)C1(NS(=O)(=O)c2ccc(-c3ccc(Cl)cc3)s2)CC1(CCCn1cccn1)c1ccccc1 (centres unmarked) [Example 2-273] , test system Recombinant Human MMP-13 (Homo sapiens, UniProt P45452), was > 7.00

====

# measured-target: Recombinant Human MMP-13 (Homo sapiens, UniProt P45452)
# Construct: purchased R&D systems 511-MM
# method-summary: MMP-13 inhibitory activity (MMP-13 specific fluorescent substrate with quencher)
# Type: biochemical
# settings: Experimental Example 3; read-out: IC50 MMP13
pIC50: −log10 of the molar value.
measurement-label: pIC50

See these solved cases before continuing.
Sure, the documented pIC50 for `Cn1cc(-c2ccc(S(=O)(=O)N[C@@]3(C(=O)O)C[C@]3(C)c3ccccc3)s2)nn1` is > 6.00

So for NCC1(c2ccccc2)CC1(NS(=O)(=O)c1ccc(-c2ccc(Cl)cc2)s1)C(=O)O (centres unmarked) , the logged pIC50 turned out to be ≤ 6.00

// pIC50 value for NC(=O)OCCc1cccc(C2CC2(NS(=O)(=O)c2ccc(-c3cc(C(F)(F)F)on3)s2)C(=O)O)c1 (centres unmarked) : > 7.00

Item: `C[C@]1(c2ccccc2)C[C@@]1(NS(=O)(=O)c1ccc(-n2cc(Cl)cn2)s1)C(=O)O` | pIC50: > 6.00

molecule CC1[C@H](c2ccccc2)[C@]1(NS(=O)(=O)c1ccc(-n2cccn2)s1)C(=O)O (some centres unmarked) , pIC50 observed: > 7.00

Consider `CC(C)CC(=O)N1CCN(S(=O)(=O)N[C@@]2(C(=O)O)C[C@@H]2c2ccccc2)CC1` . Its measured pIC50 is ≤ 6.00

Continuing:
The value of pIC50 measured for the molecule CC1[C@H](c2ccccc2)[C@]1(NS(=O)(=O)N1CCc2ccccc2C1)C(=O)O (some centres unmarked) turned out to be ≤ 6.00

Input Cc1cn(-c2ccc(S(=O)(=O)N[C@@]3(C(=O)O)C(C)[C@@H]3c3ccccc3)s2)cn1 (some centres unmarked) . Output pIC50: ≤ 6.00

get_value(item= CNC(=O)[C@]1(NS(=O)(=O)c2ccc(-c3cc(C(F)(F)F)on3)s2)C(C)[C@@H]1c1ccccc1 (some centres unmarked) , readout=pIC50) returns ≤ 6.00

Reported pIC50 ( COc1cnn(-c2ccc(S(=O)(=O)N[C@@]3(C(=O)O)C(C)[C@@H]3c3ccccc3)s2)c1 (some centres unmarked) ) = > 7.00

====

# measured-target: UniProtKB P03956
# Sequence (P03956 100-469, species assumed): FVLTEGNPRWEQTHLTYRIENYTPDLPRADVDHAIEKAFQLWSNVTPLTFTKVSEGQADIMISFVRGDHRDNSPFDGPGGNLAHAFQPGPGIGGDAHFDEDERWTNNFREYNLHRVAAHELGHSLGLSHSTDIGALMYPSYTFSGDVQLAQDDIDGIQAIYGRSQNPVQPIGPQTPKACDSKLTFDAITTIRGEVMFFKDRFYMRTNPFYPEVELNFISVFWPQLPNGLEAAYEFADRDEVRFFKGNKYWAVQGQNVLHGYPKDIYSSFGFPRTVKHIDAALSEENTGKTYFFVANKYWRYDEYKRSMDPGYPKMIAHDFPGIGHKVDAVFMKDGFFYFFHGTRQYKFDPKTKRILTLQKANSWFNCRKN
# method-summary: MMP-1 inhibitory action (Type I collagen Activity Measurement kit, FITC-labeled collagen type I)
# Type: biochemical
# settings: MMP-1 inhibitory action, FITC-labeled collagen type I, 37° C. for 3 hr; read-out: IC50 MMP1 (Experimental Example 2)
Attribute: IC50

See these solved cases before continuing.
Entry `CCCc1cc(-c2ccc(S(=O)(=O)N[C@@]3(C(=O)O)C[C@@H]3c3ccccc3)s2)no1` , IC50 reported as ≥ 1 µM

// IC50 lookup, compound = `O=C(O)[C@]1(NS(=O)(=O)c2ccc(-c3cc(CF)on3)cc2)C[C@@H]1c1ccccc1` , result: < 1 µM

The recorded IC50 for entry O=C(O)C1(NS(=O)(=O)c2ccc(-c3ccc(Cl)cc3)cc2)CC1c1cccc(OCCO)c1 (stereo not drawn) equals ≥ 1 µM

Form field IC50, entry CC(=O)Nc1cccc(C2CC2(NS(=O)(=O)c2ccc(-c3ccc(Cl)cc3)cc2)C(=O)O)c1 (stereo not drawn) : ≥ 1 µM

IC50 measured on O=C(O)C1(NS(=O)(=O)c2ccc(-c3ccc(Cl)cc3)s2)CC1c1ccccc1Br (stereo not drawn) = ≥ 10 µM

Further cases:
# IC50 (compound: O=C(Cc1cccc(C2CC2(NS(=O)(=O)c2ccc(-c3cc(C(F)(F)F)on3)s2)C(=O)O)c1)N1CCOCC1 (stereo not drawn) ) is ≥ 1 µM

Kindly note the recorded IC50 for COc1cccc(C2CC2(NS(=O)(=O)c2ccc(-c3ccc(Cl)cc3)cc2)C(=O)O)c1 (stereo not drawn) , which is ≥ 1 µM

Per the record, CN1CCN(C(=O)c2ccccc2C2CC2(NS(=O)(=O)c2ccc(-c3ccc(Cl)cc3)s2)C(=O)O)CC1 (stereo not drawn) has IC50 of ≥ 10 µM

Given item COc1ccc(N2CCN(S(=O)(=O)NC3(C(=O)O)CC3c3ccccc3)CC2)cc1 (stereo not drawn) , the value recorded as its IC50 is ≥ 10 µM

Field IC50 (entry COCCN(C)C(=O)c1ccccc1C1CC1(NS(=O)(=O)c1ccc(-c2ccc(Cl)cc2)s1)C(=O)O (stereo not drawn) ) reads ≥ 10 µM

// O=C(Cc1ccccc1C1CC1(NS(=O)(=O)c1ccc(-c2cc(C(F)(F)F)on2)s1)C(=O)O)N1CCOCC1 (stereo not drawn) : IC50 value = ≥ 1 µM

The compound identified as `C[C@]1(c2ccccc2)C[C@@]1(NS(=O)(=O)c1ccc(-c2ccc(Cl)cc2)s1)C(=O)O` registered its IC50 at ≥ 1 µM

The origin of these recorded values is patent US20080261994A1.
